Tested on: Calf thymus DNA
ASSAY_OVERVIEW: DNA binding affinity constant for calf-thymus DNA at pH 5
Format: nucleic-acid assay
APPLIED_CONDITIONS: Bos taurus
MEASURED_QUANTITY: K app (M⁻¹)

COc1ccc2c(c1)c1c3ccncc3ccc1n2C :: 1.1e+06
COc1ccc2[nH]c3ccc4cnccc4c3c2c1 :: 150000
COc1ccc2[nH]c3ccc4cccnc4c3c2c1 :: 100000
Oc1ccc2[nH]c3ccc4cnccc4c3c2c1 :: 240000
COc1ccc2[nH]c3ccc4ccncc4c3c2c1 :: 170000

P: COc1ccc2c(c1)c1c3ncccc3ccc1n2C
Q: COc1ccc2c(c1)c1c3cnccc3ccc1n2C
R: Oc1ccc2[nH]c3ccc4ccncc4c3c2c1
[in] Returns the items ordered by K app, from maximum to minimum. Answer by naming the labels in the order asked.
[out] Q, R, P

----------
Test system: Calf thymus DNA
ASSAY_OVERVIEW: DNA binding affinity constant for calf-thymus DNA at pH 6
Assay type: nucleic-acid assay
APPLIED_CONDITIONS: Bos taurus
MEASURED_QUANTITY: K app (M⁻¹)

a: COc1ccc2c(c1)c1c3ncccc3ccc1n2C
b: Oc1ccc2[nH]c3ccc4cnccc4c3c2c1
[in] Higher K app between a and b ? Identify your selection by its label.
[out] b

1: Oc1ccc2[nH]c3ccc4cccnc4c3c2c1
2: COc1ccc2c(c1)c1c3ccncc3ccc1n2C
[in] Between the two listed entries 1 and 2 , which has its K app at the higher number? API: response body contains the label of the selected item.
[out] 2
(2: 467000 M⁻¹, 1: 30000 M⁻¹)

P: COc1ccc2[nH]c3ccc4ncccc4c3c2c1
Q: Oc1ccc2[nH]c3ccc4ccncc4c3c2c1
R: COc1ccc2c(c1)c1c3cnccc3ccc1n2C
[in] Put the molecules in ascending order of K app. Returns: the labels arranged in the requested order.
[out] P, Q, R

a: COc1ccc2[nH]c3ccc4ccncc4c3c2c1
b: COc1ccc2[nH]c3ccc4cnccc4c3c2c1
[in] Smaller K app value, a vs b ? State the label of the item chosen.
[out] a

----------
ASSAY_OVERVIEW: Acid dissociation constant (pKa) measured by UV spectroscopy
MEASURED_QUANTITY: pKa

Oc1ccc2[nH]c3ccc4cnccc4c3c2c1 :: 6.75
COc1ccc2[nH]c3ccc4cnccc4c3c2c1 :: 6.4
COc1ccc2c(c1)c1c3ccncc3ccc1n2C :: 6.6
COc1ccc2c(c1)c1c3cnccc3ccc1n2C :: 5.9
Oc1ccc2[nH]c3ccc4cccnc4c3c2c1 :: 5.35
COc1ccc2c(c1)c1c3ncccc3ccc1n2C :: 5.35
COc1ccc2[nH]c3ccc4ccncc4c3c2c1 :: 5.75
COc1ccc2[nH]c3ccc4ncccc4c3c2c1 :: 5.6
COc1ccc2[nH]c3ccc4cccnc4c3c2c1 :: 5.25
Oc1ccc2[nH]c3ccc4ccncc4c3c2c1 :: 6.4

----------
System: Calf thymus DNA
ASSAY_OVERVIEW: DNA binding affinity constant in calf-thymus DNA at pH 7.4
Type: nucleic-acid assay
APPLIED_CONDITIONS: Bos taurus
MEASURED_QUANTITY: K app (M⁻¹)

Recorded K app, per entry:
COc1ccc2[nH]c3ccc4cc[n+](C)cc4c3c2c1.[I-] :: 290000
COc1ccc2[nH]c3ccc4ccncc4c3c2c1 :: 35000

A: Oc1ccc2[nH]c3ccc4cnccc4c3c2c1
B: COc1ccc2c(c1)c1c3ccncc3ccc1n2C
C: COc1ccc2[nH]c3ccc4cnccc4c3c2c1
D: Oc1ccc2[nH]c3ccc4ccncc4c3c2c1
[in] I would appreciate it if you could sort these 4 molecules by K app, starting from the smallest number. Your answer should be the labels, listed in the requested order.
[out] A, D, C, B

I: COc1ccc2c(c1)c1c3cnccc3ccc1n2C
II: Oc1ccc2[nH]c3ccc4cccnc4c3c2c1
[in] Which entry shows the lesser value of K app here, I or II ? State the label of the item chosen.
[out] II
(II: 16000 M⁻¹, I: 146000 M⁻¹)
